- Tested on: TNFα production in THP-1 cells
- run-description: LPS induced TNFα production assay in THP-1 cells
- Format: cell-based
- test-settings: Homo sapiens, 300 ng/mL LPS, measured at 5 hours
readout-kind: IC50

# return recorded IC50 for input N#CCc1ccc2ncnc(N[C@H]3CC[C@H](N4CCC5(CC4)COC5)CC3)c2c1
≤ 0.5 µM

# return recorded IC50 for input OCC#Cc1ccc2ncnc(N[C@H]3CC[C@H](N4CCC5(CC4)CC5)CC3)c2c1
≤ 0.5 µM

* * *

Measured IC50, listed per entry.
- System: TNFα production in THP-1 cells
- run-description: LPS induced TNFα production assay in THP-1 cells
- Assay type: cell-based
- test-settings: Homo sapiens, 300 ng/mL LPS, measured at 5 hours

# return recorded IC50 for input C=Cc1ccc2ncnc(N[C@H]3CC[C@H](N4CCOCC4)CC3)c2c1
≤ 500 nM

# return recorded IC50 for input C#Cc1ccc2ncnc(N[C@H]3CC[C@H](N4CCOCC4)CC3)c2c1
500 to 5000 nM

# return recorded IC50 for input C=Cc1ccc2ncnc(N[C@H]3CC[C@H](N4CCC5(CC4)CC5)CC3)c2c1
≤ 500 nM

# return recorded IC50 for input Cn1cc(Nc2nc(N[C@H]3CC[C@H](N4CCOCC4)CC3)c3cc(Br)ccc3n2)cn1
≤ 500 nM

Next:
# return recorded IC50 for input OCC#Cc1ccc2ncnc(N[C@H]3CC[C@H](N4CCOCC4)CC3)c2c1
≤ 500 nM
